assay_procedure: folding stability dG unfold from trypsin proteolysis; higher = more stable
// Not met strictly below 2 kcal/mol in folding stability dG unfold; Met otherwise

[[record]]
seq_string = "SAGGMPVTVEITVDLVLDPRYRPRPVYPPGETWREPERRVLPVTFTATFGDPEDAERAAVELLRALGVSAGG [r13_35_TrMRF]"
class_name = "Not met"

[[record]]
seq_string = "SAGGSIPPGARVETLEVVTSSSSDGTVTTTTLTRVTSPEDSVSERTRTTTDPVVPPPATPTNPVSLASAGGS [r8_90_JUSTAS]"
class_name = "Not met"

[[record]]
seq_string = "SAGGSAGGSAGTVIYIDPETDMARVLVPDADGVLVDERAVPPDQLPDVLSQGNFTVVPAPSAGGSAGGSAGG [r11_159_TrMRF]"
class_name = "Not met"

[[record]]
seq_string = "SAGGSAGGSAGPFEGYRDKKGKYYLETPDGTKELDSEEELEEEKKRLLEEGIPINVKPSASAGGSAGGSAGG [r17_35_JUSTAS]"
class_name = "Not met"

[[record]]
seq_string = "SAGGKVFTPEHLEELLKNVPADDPNATLTVTVEVPVVVLPTTDGDDNPLPAAAAPATVTLPITVLPASAGGS [r16_708_TrMRF]"
class_name = "Not met"

[[record]]
seq_string = "SAGGSAGGSAGMVKVKITAPPNASLDAIIKAVKDNGAEIISIERKGNELIIEVEIPEENASAGGSAGGSAGG [r11_672_TrMRF]"
class_name = "Not met"


Prompt line: Hi team, for SAGSNKKITAEELAKLLEEKFKEKFPDAEIKVHAHAEPRPDDKLIIHVHFEIYRKKPKIGEFDVVIEFESAG [r5_696_TrMRF] , is the recorded folding stability dG unfold at or above 2 kcal/mol?
Response line: Not met

Prompt line: Hi team, for SITASAKHPEEAIELAEKLKKELEKLLGPDTKVPITLYDDKGNPATFPITLKKKKPKVIYDPEKGLYRDESA [r9_596_TrMRF] , is the recorded folding stability dG unfold at or above 2 kcal/mol?
Response line: Not met

Prompt line: Hi team, for SAGGSPPFRIKIDEIEILPNGIIQVTFKIDNGWPMTILIQMDPDGKVTIEIQFPGNGQPFEFELPISAGGSA [r2_361_TrROS] , is the recorded folding stability dG unfold at or above 2 kcal/mol?
Response line: Met

Prompt line: Hi team, for SAGGSAGGSAVVSVSPDGYLRLAYYPETGELRELPPDVSVEEFLEAFPDVVVLAAPVAPTPESAGGSAGGSA [r18_53_TrMRF] , is the recorded folding stability dG unfold at or above 2 kcal/mol?
Response line: Not met

Prompt line: Hi team, for SAGGSAGGSAGGSGMTLPIPLSELTTEEIRELTKPDEDLVIKTEEDEPVVIPYGEIKPESAGGSAGGSAGGS [r4_382_JUSTAS] , is the recorded folding stability dG unfold at or above 2 kcal/mol?
Response line: Not met

Prompt line: Hi team, for SAGGDPSATPVVVEFTLPDGARAVATTFPSGVVVARVFNPVTGRTTEVTVTVVPESATATVTVRPNPDSAGG [r13_822_TrMRF] , is the recorded folding stability dG unfold at or above 2 kcal/mol?
Response line: Not met

Prompt line: Hi team, for SAGGSKKKIEKIEIEIEIKNKDGKTYKIKAEIEKVELKDGKVAKIRLEIYNENGEKIAEFEFEIKISAGGSA [r2_215_TrROS_Hall] , is the recorded folding stability dG unfold at or above 2 kcal/mol?
Response line: Met

Prompt line: Hi team, for SAGGSAEPRPVVVVFEGTEEEVEELVQKVRDEGFAIDFKVEPLPDPRYYRATVIVRDPDGSWTAKLSAGGSA [r15_177_TrMRF] , is the recorded folding stability dG unfold at or above 2 kcal/mol?
Response line: Met
